Each entry below carries its recorded T/C.
# System: CD2F1 mice, L1210 leukemia ip, survival T/C
# test summary: NCI In Vivo Anticancer Drug Screen. Data for tumor model L1210 Leukemia (intraperitoneal) in CD2F1 (CDF1) mice
# condition set: endpoint: mean survival time; dose: 400.0 mg/kg/injection; schedule: Q04DX003 (ip); vehicle: saline; higher = longer survival
Inconclusive results and toxic doses are left out.

Look over these answered cases.
CCC1(CC)CO1; 98 % of control
CC(C)CC([N+](C)(C)C)P(=O)([O-])O (stereo unspecified); 98 % of control
COc1ccccc1C(O)(C(=O)OCCSC)c1ccccc1OC; 88 % of control
c1ccc(P2(c3ccccc3)=NP(c3ccccc3)(c3ccccc3)=NP(c3ccccc3)(c3ccccc3)=N2)cc1; 96 % of control
O=C(OCCOCCOC(=O)N1CCOCC1)N1CCOCC1; 96 % of control

Below: the item to evaluate.
Please report the recorded T/C for Cc1cc(C)c(Sc2c3ccccc3cc3ccccc23)c(C)c1 . 95 % of control
